- Assay system: Flpin-293-PDE4B2 cells (Homo sapiens, UniProt Q07343)
- Sequence (Q07343 1-564 isoform Q07343-2): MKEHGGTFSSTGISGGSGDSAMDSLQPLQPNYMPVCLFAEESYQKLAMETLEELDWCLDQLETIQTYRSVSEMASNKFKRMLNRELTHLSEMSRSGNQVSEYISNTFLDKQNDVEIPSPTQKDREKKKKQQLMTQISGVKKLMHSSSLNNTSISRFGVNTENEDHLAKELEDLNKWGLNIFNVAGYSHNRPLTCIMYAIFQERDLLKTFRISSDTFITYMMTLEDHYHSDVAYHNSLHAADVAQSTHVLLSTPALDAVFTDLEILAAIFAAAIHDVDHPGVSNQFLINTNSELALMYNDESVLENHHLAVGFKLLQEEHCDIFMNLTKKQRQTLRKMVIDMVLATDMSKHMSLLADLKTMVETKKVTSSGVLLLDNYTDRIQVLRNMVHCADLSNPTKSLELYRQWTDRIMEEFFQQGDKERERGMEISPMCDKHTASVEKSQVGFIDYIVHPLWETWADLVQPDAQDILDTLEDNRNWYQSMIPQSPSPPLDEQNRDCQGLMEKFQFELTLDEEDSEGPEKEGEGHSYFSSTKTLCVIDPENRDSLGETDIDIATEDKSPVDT
- Method summary: cell-based
- Assay conditions: read-out: Cell Inhibition % @100 nM, 100 nM, Flpin-293-PDE4B2 cells
Label Yes when inhibition at 0.1 µM is at or above 90%; anything below gets No.

Prompt: inhibition at 0.1 µM >= 90% for CN1CC(Nc2nc(N3CCc4cc(Cl)ccc4C3)nc3c2[S+]([O-])CC3)CCC1=O (centres unmarked) [Compound 136] ?
Response: Yes

Prompt: inhibition at 0.1 µM >= 90% for [O-][S+]1CCc2nc(N3Cc4ccc(Br)cc4C3)nc(NC3(CO)CCC3)c21 (centres unmarked) [Compound 59] ?
Response: No

Prompt: inhibition at 0.1 µM >= 90% for NC(=O)Cc1ccc(Nc2nc(N3CCc4cc(Cl)ccc4C3)nc3c2[S+]([O-])CC3)cc1 (centres unmarked) [Compound 127] ?
Response: Yes

Prompt: inhibition at 0.1 µM >= 90% for [O-][S+]1CCc2nc(N3CCc4nc(Br)sc4C3)nc(NC3(CO)CCC3)c21 (centres unmarked) [Compound 63] ?
Response: No

Prompt: inhibition at 0.1 µM >= 90% for [O-][S+]1CCc2nc(N3CCc4cc(N5CCOCC5)ccc4C3)nc(NC3(CO)CCC3)c21 (centres unmarked) [Compound 144] ?
Response: Yes

Prompt: inhibition at 0.1 µM >= 90% for [O-][S+]1CCc2nc(N3CCc4ccc(Cl)cc4CC3)nc(NC3(CO)CCC3)c21 (centres unmarked) [Compound 34] ?
Response: No

Prompt: inhibition at 0.1 µM >= 90% for [O-][S+]1CCc2nc(N3CCc4cc(N5CCC6(COC6)C5)ccc4C3)nc(NC3(CO)CCC3)c21 (centres unmarked) [Compound 165] ?
Response: Yes

---

Give measured inhibition at 0.01 µM for each item. Keep answers brief.
- Assay system: Flpin-293-PDE4B2 cells (Homo sapiens, UniProt Q07343)
- Method summary: cell-based
- Assay conditions: read-out: Cell Inhibition % @10 nM, 10 nM, Flpin-293-PDE4B2 cells

Prompt: Give the value of inhibition at 0.01 µM reported for the following: Cn1cnc(-c2ccc3c(c2)CCN(c2nc4c(c(NC5(CO)CCC5)n2)[S+]([O-])CC4)C3)n1 (stereo not shown)
Response: 94.1%

Prompt: Give the value of inhibition at 0.01 µM reported for the following: CC(=O)N1CC[C@H](Nc2nc(N3CCc4cc(N5CCCC5)ccc4[C@@H]3C)nc3c2[S+]([O-])CC3)C1 (stereo partly shown)
Response: 96.2%

Prompt: Give the value of inhibition at 0.01 µM reported for the following: [O-][S+]1CCc2nc(N3CCc4cc(N5CC6COCC6C5)ccc4C3)nc(NC3(CO)CCC3)c21 (stereo not shown)
Response: 91%

Prompt: Give the value of inhibition at 0.01 µM reported for the following: [O-][S+]1CCc2nc(N3CCc4ccc(Br)cc4CC3)nc(NC3(CO)CCC3)c21 (stereo not shown)
Response: 69.6%

Prompt: Give the value of inhibition at 0.01 µM reported for the following: C[C@@H]1c2ccc(Br)cc2CCN1c1nc2c(c(NC3(CO)CCC3)n1)[S+]([O-])CC2 (stereo partly shown)
Response: 42.6%

Prompt: Give the value of inhibition at 0.01 µM reported for the following: CN(C)C1CCN(c2ccc3c(c2)CCN(c2nc4c(c(NC5(CO)CCC5)n2)[S+]([O-])CC4)C3)C1 (stereo not shown)
Response: 37.3%

Prompt: Give the value of inhibition at 0.01 µM reported for the following: [O-][S+]1CCc2nc(N3CC[C@@H]4c5ccc(F)cc5OC[C@H]4C3)nc(NC3(CO)CCC3)c21 (stereo partly shown)
Response: 65.4%

---

- Assay system: PDE4D2 (Homo sapiens)
- Sequence (Q08499 303-809 limits assumed): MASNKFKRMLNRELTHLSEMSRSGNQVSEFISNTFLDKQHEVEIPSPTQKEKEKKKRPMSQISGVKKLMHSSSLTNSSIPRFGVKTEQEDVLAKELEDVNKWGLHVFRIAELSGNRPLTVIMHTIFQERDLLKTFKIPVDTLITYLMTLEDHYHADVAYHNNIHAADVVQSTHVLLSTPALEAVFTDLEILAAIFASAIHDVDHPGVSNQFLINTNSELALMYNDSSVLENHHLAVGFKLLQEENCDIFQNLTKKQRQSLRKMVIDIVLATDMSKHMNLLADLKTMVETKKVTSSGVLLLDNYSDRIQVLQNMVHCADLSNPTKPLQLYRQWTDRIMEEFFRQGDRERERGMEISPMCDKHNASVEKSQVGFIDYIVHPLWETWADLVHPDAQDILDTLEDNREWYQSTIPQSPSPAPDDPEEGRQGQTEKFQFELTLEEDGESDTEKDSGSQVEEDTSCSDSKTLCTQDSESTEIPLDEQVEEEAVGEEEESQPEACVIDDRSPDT
- Method summary: PDE4D2 enzyme experiment (AMP-Glo)
- Assay conditions: read-out: PDE4D2 IC50 Binding; enzyme assay
Measured quantity: pIC50
// field semantics: pIC50 = negative decimal log of concentration (mol/L)

Prompt: Give the value of pIC50 reported for the following: C[C@H]1c2ccc(N3CCCC3)cc2CCN1c1nc2c(c(Nc3cnn(C4COC4)c3)n1)[S+]([O-])CC2 (some centres unmarked)
Response: 9.12

Prompt: Give the value of pIC50 reported for the following: [O-][S+]1CCc2nc(N3CC[C@@H]4c5ccc(Cl)nc5OC[C@H]4C3)nc(NC3(CO)CCC3)c21 (some centres unmarked)
Response: 8.55

Prompt: Give the value of pIC50 reported for the following: CO[C@@H]1CCN(c2ccc3c(c2)CCN(c2nc4c(c(NC5(CO)CCC5)n2)[S+]([O-])CC4)C3)C1 (some centres unmarked)
Response: 9.13

Prompt: Give the value of pIC50 reported for the following: [O-][S+]1CCc2nc(N3CCc4cc(N5CCCC5)ccc4C3)nc(Nc3cnn(C4COC4)c3)c21 (centres unmarked)
Response: 9.35

Prompt: Give the value of pIC50 reported for the following: [O-][S+]1CCc2nc(N3CCc4cc(N5CCCC5)ccc4C3)nc(NC3(CO)CC3)c21 (centres unmarked)
Response: 9.81

---

- Assay system: Flpin-293-PDE4B2 cells (Homo sapiens, UniProt Q07343)
- Method summary: cell-based
- Assay conditions: read-out: Cell Inhibition % @10 nM, 10 nM, Flpin-293-PDE4B2 cells
Label Satisfied when inhibition at 0.01 µM is at or above 40%; anything below gets Not satisfied.

Prompt: inhibition at 0.01 µM >= 40% for Cn1ccc(-c2ccc3c(c2)CCN(c2nc4c(c(NC5(CO)CCC5)n2)[S+]([O-])CC4)C3)n1 (stereo not drawn) ?
Response: Satisfied

Prompt: inhibition at 0.01 µM >= 40% for C[C@H]1CCCN1c1ccc2c(c1)CCN(c1nc3c(c(NC4(CO)CCC4)n1)[S+]([O-])CC3)C2 (stereo partly drawn) ?
Response: Satisfied

Prompt: inhibition at 0.01 µM >= 40% for C[C@H]1c2ccc(N3CCCC3)cc2CCN1c1nc2c(c(N[C@@H]3CC[C@H]3O)n1)[S+]([O-])CC2 (stereo partly drawn) ?
Response: Satisfied

Prompt: inhibition at 0.01 µM >= 40% for [O-][S+]1CCc2nc(N3CCc4cc(N5CC6(COC6)C5)ccc4C3)nc(NC3(CO)CCC3)c21 (stereo not drawn) ?
Response: Not satisfied

Prompt: inhibition at 0.01 µM >= 40% for [O-][S+]1CCc2nc(N3CCc4cc(N5CC(F)(F)C5)ccc4C3)nc(NC3(CO)CCC3)c21 (stereo not drawn) ?
Response: Not satisfied

Prompt: inhibition at 0.01 µM >= 40% for [O-][S+]1CCc2nc(N3CCc4c(nn5cc(F)ccc45)C3)nc(NC3(CO)CCC3)c21 (stereo not drawn) ?
Response: Satisfied

Prompt: inhibition at 0.01 µM >= 40% for NC(=O)Cc1ccc(Nc2nc(N3CCc4cc(Cl)ccc4C3)nc3c2[S+]([O-])CC3)cc1 (stereo not drawn) ?
Response: Satisfied

Prompt: inhibition at 0.01 µM >= 40% for Cn1nc2c(c1Cl)CN(c1nc3c(c(NC4(CO)CCC4)n1)[S+]([O-])CC3)CC2 (stereo not drawn) ?
Response: Not satisfied

Prompt: inhibition at 0.01 µM >= 40% for [O-][S+]1CCc2nc(N3CCc4cc(N5CC6C(C5)C6(F)F)ccc4C3)nc(NC3(CO)CCC3)c21 (stereo not drawn) ?
Response: Not satisfied

Prompt: inhibition at 0.01 µM >= 40% for C[C@H]1c2ccc(N3CCCC3)cc2CCN1c1nc2c(c(Nc3ncnn3C)n1)[S+]([O-])CC2 (stereo partly drawn) ?
Response: Not satisfied

Prompt: inhibition at 0.01 µM >= 40% for O=[N+]([O-])c1ccc2c(c1)CN(c1nc3c(c(NC4(CO)CCC4)n1)[S+]([O-])CC3)C2 (stereo not drawn) ?
Response: Not satisfied

Prompt: inhibition at 0.01 µM >= 40% for C[C@H]1c2ccc(N3CCCC3)cc2CCN1c1nc2c(c(Nc3cn(C)nn3)n1)[S+]([O-])CC2 (stereo partly drawn) ?
Response: Not satisfied

Prompt: inhibition at 0.01 µM >= 40% for Cc1ccc2c(c1)OC[C@H]1CN(c3nc4c(c(NC5(CO)CCC5)n3)[S+]([O-])CC4)CC[C@H]21 (stereo partly drawn) ?
Response: Satisfied

Prompt: inhibition at 0.01 µM >= 40% for [O-][S+]1CCc2nc(N3CCc4nc(Br)sc4C3)nc(NC3(CO)CCC3)c21 (stereo not drawn) ?
Response: Not satisfied

Prompt: inhibition at 0.01 µM >= 40% for [O-][S+]1CCc2nc(N3CCc4cc(N5CC(F)C5)ccc4C3)nc(NC3(CO)CCC3)c21 (stereo not drawn) ?
Response: Not satisfied

Prompt: inhibition at 0.01 µM >= 40% for [O-][S+]1CCc2nc(N3CCc4cc(N5CCCC5)ccc4C3)nc(NCCO)c21 (stereo not drawn) ?
Response: Satisfied

Prompt: inhibition at 0.01 µM >= 40% for C[C@H]1c2ccc(Br)cc2CCN1c1nc2c(c(NC3(CO)CCC3)n1)[S+]([O-])CC2 (stereo partly drawn) ?
Response: Not satisfied

Prompt: inhibition at 0.01 µM >= 40% for COc1nn(C)cc1Nc1nc(N2CCc3cc(N4CCCC4)ccc3[C@@H]2C)nc2c1[S+]([O-])CC2 (stereo partly drawn) ?
Response: Satisfied

Prompt: inhibition at 0.01 µM >= 40% for C[C@H]1c2ccc(N3CCCC3)cc2CCN1c1nc2c(c(Nc3ccnn3CCO)n1)[S+]([O-])CC2 (stereo partly drawn) ?
Response: Not satisfied

Prompt: inhibition at 0.01 µM >= 40% for C[C@H]1c2ccc(N3CCCC3)cc2CCN1c1nc2c(c(NCc3cnn(C)c3)n1)[S+]([O-])CC2 (stereo partly drawn) ?
Response: Satisfied

Prompt: inhibition at 0.01 µM >= 40% for [O-][S+]1CCc2nc(N3CCc4cc(-n5ccnc5)ccc4C3)nc(NC3(CO)CCC3)c21 (stereo not drawn) ?
Response: Satisfied

Prompt: inhibition at 0.01 µM >= 40% for Cn1cc(Nc2nc(N3CCc4cc(Cl)ccc4C3)nc3c2[S+]([O-])CC3)cn1 (stereo not drawn) ?
Response: Satisfied

Prompt: inhibition at 0.01 µM >= 40% for C[C@H]1c2ccc(N3CCCC3)cc2CCN1c1nc2c(c(NC3CS(=O)(=O)C3)n1)[S+]([O-])CC2 (stereo partly drawn) ?
Response: Satisfied

Prompt: inhibition at 0.01 µM >= 40% for COC[C@@H]1CCCN1c1ccc2c(c1)CCN(c1nc3c(c(NC4(CO)CCC4)n1)[S+]([O-])CC3)C2 (stereo partly drawn) ?
Response: Not satisfied

Prompt: inhibition at 0.01 µM >= 40% for COc1ccc2sc3c(c2c1)CCN(c1nc2c(c(NC4(CO)CCC4)n1)[S+]([O-])CC2)C3 (stereo not drawn) ?
Response: Satisfied

Prompt: inhibition at 0.01 µM >= 40% for [O-][S+]1CCc2nc(N3CCc4cc(N5C[C@H]6C[C@@H]5CO6)ccc4C3)nc(NC3(CO)CCC3)c21 (stereo partly drawn) ?
Response: Satisfied

Prompt: inhibition at 0.01 µM >= 40% for CN1CCN(c2ccc3c(c2)CCN(c2nc4c(c(NC5(CO)CCC5)n2)[S+]([O-])CC4)C3)CC1 (stereo not drawn) ?
Response: Not satisfied

Prompt: inhibition at 0.01 µM >= 40% for CN(C)c1ccc2c(c1)CCN(c1nc3c(c(NC4(CO)CCC4)n1)[S+]([O-])CC3)C2 (stereo not drawn) ?
Response: Satisfied
